# measuredTarget: T1, human TMEM106B (human, UniProt Q9NUM4 2-274)
# T1 construct: full-length, transiently expressed on HEK293 cells, or natively expressed on HeLa, U251 and A549 cells (the cell is named under assay); also the source of the Pepscan peptides; also called huTMEM106B; huTMEM
# assayMethodText: FACS U251
metric: MFI

# binder, metric, measured
measured = [
    ("TM-18 (antibody, V domains shown) VH: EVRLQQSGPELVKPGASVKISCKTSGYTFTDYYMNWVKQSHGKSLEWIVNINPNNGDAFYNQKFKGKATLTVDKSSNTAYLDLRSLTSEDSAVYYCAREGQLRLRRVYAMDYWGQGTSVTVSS VL: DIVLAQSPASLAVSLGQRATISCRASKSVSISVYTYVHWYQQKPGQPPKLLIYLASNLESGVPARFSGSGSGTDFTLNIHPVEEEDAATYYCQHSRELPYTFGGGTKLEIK", "MFI", "874 MFI"),
    ("TM-23 (antibody, V domains shown) VH: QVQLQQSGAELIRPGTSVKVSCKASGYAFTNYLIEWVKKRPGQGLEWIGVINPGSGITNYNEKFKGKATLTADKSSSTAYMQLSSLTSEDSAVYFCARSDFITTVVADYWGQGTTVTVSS VL: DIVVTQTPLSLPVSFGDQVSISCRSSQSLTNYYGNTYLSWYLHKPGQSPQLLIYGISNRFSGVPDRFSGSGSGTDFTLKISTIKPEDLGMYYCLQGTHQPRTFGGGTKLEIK", "MFI", "278 MFI"),
    ("TM-14 (antibody, V domains shown, mouse IgG (hybridoma)) VH: QVQLQQSGPELVRPGTSVKVSCKASGYAFTNYLIEWVKQRPGQGLEWIGVINPGGGNTDYSEKFKDKATLTADKSSNTAYIQLSSLTSEDSAVYFCARSPYSSYVGYAVDYWGQGTSVTVSS VL: DIQMTQSPSSLSASLGERVSLTCRASQDIGSNLNWLQQEPDGTIKRLIYATSSLDSGVPKRFSGSRSGSDYSLTISSLESEDFVVYYCLQYASSPRTFGGGTRLEIK", "MFI", "270 MFI"),
]
